TARGET DESC: SMN complex (Homo sapiens, UniProt Q16637)
Construct: HeLa cell extracts (containing the SMN complex and all the components required for Sm core assembly); endogenous in cells; host or cells: HeLa: S3 cytoplasmic or total extracts for in vitro reactions, HeLa PV total extracts for compound-treated cells
Sequence (Q16637 2-294 limits assumed): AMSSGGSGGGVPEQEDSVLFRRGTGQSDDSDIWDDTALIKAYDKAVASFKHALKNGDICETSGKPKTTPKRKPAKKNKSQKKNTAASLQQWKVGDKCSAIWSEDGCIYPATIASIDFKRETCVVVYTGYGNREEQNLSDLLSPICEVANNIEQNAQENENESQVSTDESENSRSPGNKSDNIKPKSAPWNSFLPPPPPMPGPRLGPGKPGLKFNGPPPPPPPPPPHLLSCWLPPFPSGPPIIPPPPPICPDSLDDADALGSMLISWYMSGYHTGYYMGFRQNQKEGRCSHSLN
Sequence (O14893 whole entry partner): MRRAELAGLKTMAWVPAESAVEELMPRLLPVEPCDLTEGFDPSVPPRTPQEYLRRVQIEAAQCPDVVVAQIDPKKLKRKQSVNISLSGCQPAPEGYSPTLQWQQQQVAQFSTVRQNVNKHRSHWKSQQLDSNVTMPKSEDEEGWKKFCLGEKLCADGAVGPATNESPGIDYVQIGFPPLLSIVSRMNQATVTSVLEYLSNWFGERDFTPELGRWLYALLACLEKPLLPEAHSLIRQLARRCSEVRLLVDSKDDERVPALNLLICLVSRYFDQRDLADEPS
ASSAY NOTES: Magnetic beads snRNP assembly assay in vitro with cell extracts
Assay type: biochemical
CONDITION INFO: in vitro
PROPERTY MEASURED: inhibition of the SMN complex / assembly in cell extracts (in words)

[[record]]
chemical_structure = "O=C1C(=O)C(Cl)=C(Cl)C(Cl)=C1Cl"
meas_value = "strongly inhibit"

[[record]]
chemical_structure = "O=C1C(=O)c2ccccc2-c2ccccc21"
meas_value = "strongly inhibit"


* * *

TARGET DESC: SMN complex (Homo sapiens)
Construct: HeLa cell extracts (containing the SMN complex and all the components required for Sm core assembly); endogenous in cells; host or cells: HeLa: S3 cytoplasmic or total extracts for in vitro reactions, HeLa PV total extracts for compound-treated cells
ASSAY NOTES: Magnetic beads snRNP assembly assay in vitro with cell extracts
Type: biochemical
CONDITION INFO: extracts of untreated cells; read-out: IC50, inhibition of the activity of the SMN complex in vitro
PROPERTY MEASURED: pIC50
In simple prose, pIC50 is minus the logarithm base ten of a concentration in moles per litre.

Request: Provide value of pIC50 for this record tested with SMN complex (Homo sapiens): CC1=CC(=O)c2ccccc2C1=O [menadione, 2-methyl-1,4-napthoquinone]
Result: 4.60

* * *

TARGET DESC: SMN complex (Homo sapiens)
Construct: HeLa cell extracts (containing the SMN complex and all the components required for Sm core assembly); endogenous in cells; host or cells: HeLa: S3 cytoplasmic or total extracts for in vitro reactions, HeLa PV total extracts for compound-treated cells
ASSAY NOTES: Magnetic beads snRNP assembly assay on extracts from compound-treated HeLa cells
Assay type: cell-based
CONDITION INFO: HeLa cells treated for 1 hour; read-out: IC50, inhibition of the activity of the SMN complex in treated cells
PROPERTY MEASURED: IC50 (nM)
State just the number; it will be interpreted in nM.

Request: For CC1(C)CCC2=C(O1)c1ccccc1C(=O)C2=O [β-lapachone] , what is its reported IC50?
Result: 450
